assay.text: yeast display, Sf9 membrane polyspecificity reagent, FACS + sequencing; frameworks hold sequencing errors
property.measured: polyreactivity (PSR sort gate)

- sequence: "QVQLVESGGGLVQAGGSLRLSCAASGRTFGYYVMGWYRQAPGKERELVAAISRSGGTTYYADSVKGRFTISRDNAKNTVYLQMNSLKPEDTAVYYCATDSRTGYDYWGQGTQVTVSS"
  property.measured: "polyreactivity (PSR sort gate)"
  reported.measurement: "high polyreactivity"
- sequence: "QVQLVESGGGLVQAGGSLRLSCAASGYTFGTYTMGWYRMARWKERELVAGIDSGGTTNYADSVKGRFTISRDNATNTVYLQMHSLKPEHTAVYYSTAYHLLIVDYYLGLYYYRGNYYWGQGTQVTVSS"
  property.measured: "polyreactivity (PSR sort gate)"
  reported.measurement: "low polyreactivity"
- sequence: "QVQLVESGGGLVQAGGSLRLSCAASGFIFTVNAMGWYRQAPGKERELVAAITQSGGNTSYADSVKGRFTISRDNAKNTVYLQMNSLTPEDTAVYYCNASSDTSRYGVSTYYYWGQGTQVTVSS"
  property.measured: "polyreactivity (PSR sort gate)"
  reported.measurement: "low polyreactivity"
- sequence: "QVQLVESGGGLVQAGGSLRLSCAASGSIFYDYAMGWYRQAPGKERELVAAITASGGSTYYADSVKGRFTISRDNAKNTVYLQMNSLKPEDTAVYYCAAESESYEQVGEMDSWGQGTQVTVSS"
  property.measured: "polyreactivity (PSR sort gate)"
  reported.measurement: "low polyreactivity"
- sequence: "QVQLVESGGGFVQAGGSLRLSCAASGRNFFSNAMGWYRQAPGNEWELVASITSRGGTTYYADSVKGRFTISSYNAKNPVYLQMNSVKPEDTAVYYCAALRRSYFGYWGQVTQVTVSS"
  property.measured: "polyreactivity (PSR sort gate)"
  reported.measurement: "high polyreactivity"
